- ASSAY: MRT (0 to infinity) in male Sprague-Dawley rat at 10 mg/kg, po measured after 24 hrs by LC-MS/MS analysis
- Type: ADME, organism-based
- CONDITION_SET: in vivo
# MRT inf >= 10 h gives Y, anything below gives N

[[record]]
compound = "CC(C)=CCc1c(O)ccc2c1OC(c1ccc(O)cc1)CC2=O (stereo not given)"
assigned_class = "N"

[[record]]
compound = "C/C(=C\\Cc1c(O)ccc2c1OC(c1ccc(Br)c3ccccc13)CC2=O)C(=O)O (stereo not given)"
assigned_class = "N"

[[record]]
compound = "C/C(=C\\Cc1c(O)ccc2c1OC(c1cccs1)CC2=O)C(=O)O (stereo not given)"
assigned_class = "N"

[[record]]
compound = "C/C(=C\\Cc1cccc2c1OC(c1cccs1)CC2=O)C(=O)O (stereo not given)"
assigned_class = "Y"

